tested on: SNB-19; test: NCI tumour cell line growth inhibition, 48 h
The source made the active and inactive calls. No stated cut-off is given here; in the data, active = GI50 up to about 1.1 µM and inactive = higher.
Measured GI50, listed per entry.

Worked examples follow.
CCOC(=O)[C@@]1(C(C)=O)CC(C)=C(C)C[S@@+]1[O-]
> 100 µM (inactive)
NC(Cc1ncccn1)C(=O)O (stereo not given)
> 100 µM (inactive)
CCCCCCCCCCCCCCCCNc1ccn(C2CC(OP(=O)(O)OCC3OC(n4cc(CC)c(=O)[nH]c4=O)CC3O)C(CO)O2)c(=O)n1 (stereo not given)
16 µM (inactive)
CCCCCCCCCC[C@@H](O)[C@H]1CC[C@H]([C@H]2CC[C@H]([C@H](O)CCCCCCCCCC[C@@H]3CC(CC(C)=O)C(=O)O3)O2)O1 (stereo not given in full)
> 47.3 µM (inactive)
Nc1nc(Cl)c(/C=N\O)c(NCC2(CO)CCC2)n1
53.2 µM (inactive)

Input line: # input molecule: CSc1ccc(/C=C2\N=C(c3ccccc3)N(/N=C3\C(=O)Nc4ccccc43)C2=O)cc1 ; wanted: its GI50
Output line: > 100 µM (inactive)

Input line: Let us now turn to CC(C)(C)OC(=O)NCC(=O)NC1CC=CCC1NC(=O)CNC(=O)OC(C)(C)C (stereo not given)
Output line: > 100 µM (inactive)

Input line: Can you check Nc1ncn2c(n1)nc1ccccc12 next?
Output line: > 100 µM (inactive)

Input line: Also N#CC(/N=N/c1ccc(Cl)cc1)c1nc2ccccc2o1 (stereo not given) ?
Output line: 42.7 µM (inactive)

Input line: O=C1c2ccccc2C(=O)c2c1cc(S(=O)(=O)O)c(O)c2O [Alizarin Red S] , same question.
Output line: > 10 µM (inactive)

====

system: OVCAR-4; assay: NCI tumour cell line growth inhibition, 48 h
Calls of active or inactive are those of the source. Rule as the data show it: active = GI50 up to about 1.1 µM and inactive = higher.
Choose the fitting class; nothing outside active, inactive is accepted.

Solved cases (5 shown):
CCOP(=O)(OCC)C(Cc1ccc(Cl)cc1)NS(=O)(=O)c1ccc(C)cc1 (centres undefined)
inactive
Cc1cc(C)nc(NS(=O)(=O)c2ccc(NC(=O)c3cccc4c(=O)c5ccccc5[nH]c34)cc2)n1
inactive
CN(CCCCN)c1ccc2c(=O)[nH][nH]c(=O)c2c1
inactive
Nc1nc(Cl)c(/C=N\O)c(NCC2(CO)CCC2)n1
inactive
CC1=NN(c2ccccc2)C(=O)C1/N=N/c1ccc(S(N)(=O)=O)cc1 (centres undefined)
inactive

Input line: Give the logged outcome of this assay for the following compound: CCOC(=O)C(=Cc1ccccc1Br)C(=O)OCC
Output line: inactive

Input line: Same for CCOC(=O)c1ccc(/N=N\c2ccc(N(CCC#N)CCC#N)cc2C)cc1
Output line: inactive

Input line: Could you do the same for N#C/C(=C\c1ccc(F)cc1)c1nc(-c2cc3ccccc3oc2=O)cs1 , please?
Output line: inactive

====

tested on: NCI-H23; experiment: NCI tumour cell line growth inhibition, 48 h
Active and inactive are the calls of the source. No stated cut-off is given here; in the data, active = GI50 up to about 1.1 µM and inactive = higher.
Items are presented alongside their recorded GI50.

Solved cases (4 shown):
CC1=NN(c2ccccc2)C(=O)C1/N=N/c1ccc(Br)c(C)c1 (stereo not given)
> 100 µM (inactive)
COc1ccc(OC)c2c1ccc1c(C)c3ccccc3c(C)c12
89.5 µM (inactive)
Cc1cc2c(cc1O)CC[C@@H]1[C@@H]2CC[C@]2(C)[C@@H](O)CC[C@@H]12
13.6 µM (inactive)
c1ccc2c(c1)[C@@H]1O[C@@H]1[C@@]13O[C@@]21[C@H]1O[C@H]1c1ccccc13
14 µM (inactive)

// moving on: another record for GI50
Input line: May I ask what GI50 has been recorded for Cn1c(Nc2ccccc2)c(/C=N\c2ccccc2)c(=O)n(C)c1=O ?
Output line: 82.6 µM (inactive)
